Just for reference, patent US20120196899A1 is where these values come from.

protocol_description: Plasma pharmacokinetics after oral multi-dose anatabine polacrilex
Type: in vivo, Sprague-Dawley rats
experimental_setup: male, Sprague-Dawley, rat, plasma, oral, 2 mg/kg, Anatabine Concentration in rat plasma, 475 min, individual animals 3A-3D
measure_name: concentration at 475 min (ng/mL)
One number for each entry, in ng/mL.

Identify measured concentration at 475 min associated with C1=CCC(c2cccnc2)NC1 (racemic) [Anatabine, 1,2,3,6-tetrahydro-[2,3′]bipyridinyl]
79

---

protocol_description: Plasma toxicokinetics after single i.v. bolus
Format: in vivo, Sprague-Dawley rats
experimental_setup: Sprague-Dawley, rat, plasma, intravenous, 0.75 mg/kg, Concentration of anatabine in rat plasma, Anatabine 0.75 mg/kg, rat plasma, 8 hr, rats of group 4
measure_name: concentration at 8 h (ng/mL)
Numbers only, in ng/mL.

Determine from records and report concentration at 8 h for C1=CCC(c2cccnc2)NC1 (racemic) [Anatabine, 1,2,3,6-tetrahydro-[2,3′]bipyridinyl]
10
